The measurements presented in this section are drawn from ChEMBL document CHEMBL1212773.

# Tested on: Escherichia coli
# ASSAY_DETAILS: Antimicrobial activity against Escherichia coli ATCC 25922 by Etest method
# Format: functional

SAMPLE_SMILES	UNIT_STRING	MIC
CO/N=C(\C(=O)N[C@@H]1C(=O)N2C(C(=O)O)=C(COC(N)=O)CS[C@H]12)c1ccco1	µg/mL	2
CC(C)(O/N=C(\C(=O)N[C@@H]1C(=O)N2C(C(=O)[O-])=C(C[n+]3ccccc3)CS[C@H]12)c1csc(N)n1)C(=O)O	µg/mL	0.125
CO[C@H]1/C=C/O[C@@]2(C)Oc3c(C)c(O)c4c(O)c(c(/C=N/N5CCN(C)CC5)c(O)c4c3C2=O)NC(=O)/C(C)=C\C=C\[C@H](C)[C@H](O)[C@@H](C)[C@@H](O)[C@@H](C)[C@H](OC(C)=O)[C@@H]1C	µg/mL	4
CCn1cc(C(=O)O)c(=O)c2ccc(C)nc21	µg/mL	4
Cc1cc(NS(=O)(=O)c2ccc(N)cc2)no1	µg/mL	8
CN(C)[C@@H]1C(O)=C(C(N)=O)C(=O)[C@@]2(O)C(O)=C3C(=O)c4c(O)cccc4[C@@](C)(O)[C@H]3C[C@@H]12	µg/mL	1

###

# Tested on: Escherichia coli
# ASSAY_DETAILS: Antimicrobial activity against Escherichia coli J5 transconjugants expressing beta lactamase CTX-M-9 isolated from human flora associated C3H rat infected with Salmonella enterica serotype Virchow and treated with Cefixime-cluvulanic acid by Etest method
# Type: functional
Entries annotated with measured MIC

SAMPLE_SMILES	MIC, µg/mL
CCn1cc(C(=O)O)c(=O)c2ccc(C)nc21	4
C=CC1=C(C(=O)O)N2C(=O)[C@@H](NC(=O)/C(=N\OCC(=O)O)c3csc(N)n3)[C@H]2SC1	8
COc1cc(Cc2cnc(N)nc2N)cc(OC)c1OC	1
CO[C@@]1(NC(=O)Cc2cccs2)C(=O)N2C(C(=O)O)=C(COC(N)=O)CS[C@@H]21	16

###

# Tested on: Escherichia coli
# ASSAY_DETAILS: Antimicrobial activity against Escherichia coli J5 transconjugants expressing beta lactamase CTX-M-9 isolated from human flora associated C3H rat infected with Salmonella enterica serotype Virchow and treated with Cefixime-cluvulanic acid by Etest method
# Type: functional

SAMPLE_SMILES	QUALIFYING_SIGN	MIC, µg/mL
CN[C@@H]1[C@H](O[C@H]2[C@H](O[C@H]3[C@H](O)[C@@H](O)[C@H](N=C(N)N)[C@@H](O)[C@@H]3N=C(N)N)O[C@@H](C)[C@]2(O)C=O)O[C@@H](CO)[C@H](O)[C@H]1O	=	2
CC(C)(O/N=C(\C(=O)N[C@@H]1C(=O)N2C(C(=O)[O-])=C(C[n+]3ccccc3)CS[C@H]12)c1csc(N)n1)C(=O)O	=	1
CC1(C)S[C@@H]2[C@H](NC(=O)[C@H](N)c3ccccc3)C(=O)N2[C@H]1C(=O)O	=	16
CN(C)[C@@H]1C(O)=C(C(N)=O)C(=O)[C@@]2(O)C(O)=C3C(=O)c4c(O)cccc4[C@@](C)(O)[C@H]3C[C@@H]12	=	4
CO/N=C(\C(=O)N[C@@H]1C(=O)N2C(C(=O)O)=C(COC(C)=O)CS[C@H]12)c1csc(N)n1	=	0.5
CO/N=C(\C(=O)N[C@@H]1C(=O)N2C(C(=O)O)=C(COC(N)=O)CS[C@H]12)c1ccco1	=	16
CO[C@H]1/C=C/O[C@@]2(C)Oc3c(C)c(O)c4c(O)c(c(/C=N/N5CCN(C)CC5)c(O)c4c3C2=O)NC(=O)/C(C)=C\C=C\[C@H](C)[C@H](O)[C@@H](C)[C@@H](O)[C@@H](C)[C@H](OC(C)=O)[C@@H]1C	>	512
Cc1cc(NS(=O)(=O)c2ccc(N)cc2)no1	=	4
CO/N=C(\C(=O)N[C@@H]1C(=O)N2C(C(=O)O)=C(CSC(=O)c3ccco3)CS[C@H]12)c1csc(N)n1	=	1
